# Tested on: HCT-15 colon
# test: NCI-60 one-dose screen, 48 h (100 = growth as untreated, 0 = no growth, -100 = all killed)
# assaySetup: 10 µM
About 83,000 compounds went through this panel and 20% of them were active in at least one assay; those are over-represented in the sample as a whole.
Lab note: anything with growth below 90% is marked Y; values at 90% or higher are marked N.

[[record]]
compound = "NC(N)=Nc1cc2ccccc2c2ccccc12"
labelvalue = "Y"

[[record]]
compound = "O=C(O)C(Cc1ccccc1)C(=O)O"
labelvalue = "N"

[[record]]
compound = "CC(C)NC(=O)OCc1c(COC(=O)NC(C)C)c(-c2ccc(Cl)c(Cl)c2)n2c1SCC2"
labelvalue = "Y"

[[record]]
compound = "CCCCCCCCCCC1CO1 (centres undefined)"
labelvalue = "N"

[[record]]
compound = "CN(C)c1ccc2oc(=O)c3ccccc3c2c1"
labelvalue = "N"


Please check: growth for NC(=S)NN=C1CCCC1 , strictly under 90% or not? Y

Please check: growth for CC(=O)Nc1cccc(NC(C)=O)n1 , strictly under 90% or not? N

Please check: growth for Cn1cnc2nc(Cl)nc(Cl)c21 , strictly under 90% or not? Y

Please check: growth for Cc1cc(NC(=O)CSCC(=O)O)no1 , strictly under 90% or not? N

----------
# Test system: SR leukemia
# test: NCI-60 one-dose screen, 48 h (100 = growth as untreated, 0 = no growth, -100 = all killed)
# assaySetup: 10 µM
This is part of a sample that, as a whole, favours compounds with a hit. Of some 83,000 tested, about 20% had one in any assay. Activity calls are given as the source filed them. The calls were made as follows: active = growth percent below 10; inactive = the rest.
reportedProperty: growth

[[record]]
compound = "Cc1nc2ccccc2c(C(=O)O)c1O"
target = "SR leukemia"
resultvalue = "95.6% (inactive)"

[[record]]
compound = "O=C(O)C(Cc1ccccc1)C(=O)O"
target = "SR leukemia"
resultvalue = "101% (inactive)"

[[record]]
compound = "CNc1nc(NC)c2cn[nH]c2n1"
target = "SR leukemia"
resultvalue = "96.7% (inactive)"

[[record]]
compound = "O=C(c1ccccc1)C1CCC1"
target = "SR leukemia"
resultvalue = "92.7% (inactive)"


Quick one: give me growth for each item below, same order please.
1. COc1cc2c3cc1Oc1c(OC)c(OC)cc4c1C(Cc1ccc(O)c(c1)Oc1ccc(cc1)CC3N(C)CC2)N(C)CC4 (stereo not drawn)
2. CC(C)=C(NC(=O)c1ccccc1)C(=O)O
3. CC(=O)OCC1OC(OC2=C(CC=C(C)C)C(=O)c3ccccc3C2=O)C(OC(C)=O)C(OC(C)=O)C1OC(C)=O (stereo not drawn)
4. O=C(O)c1cccc([N+](=O)[O-])c1O
5. CC(=O)c1sc2c(c1OC(=O)c1ccc(Cl)cc1Cl)c(=O)n(-c1ccccc1)c(=S)n2-c1ccccc1

["-1.66% (active)", "95.4% (inactive)", "-42.9% (active)", "94.4% (inactive)", "-10.4% (active)"]

Quick one: give me growth for each item below, same order please.
1. O=S(=O)(Cc1ccccc1)c1ccccc1
2. O=[N+]([O-])c1cccc(N=Nc2ccc(O)cc2O)c1
3. CCCCCCCCOC(=O)c1ccccn1

1: 99.9% (inactive); 2: 43.1% (inactive); 3: 125% (inactive)

Quick one: give me growth for each item below, same order please.
1. NC(N)=Nc1cc2ccccc2c2ccccc12
2. CN(C)c1ccc(C(c2ccc(O)cc2)c2ccc(N(C)C)cc2)cc1
3. O=C(O)c1cc([N+](=O)[O-])ccc1Cl
4. CCOc1ccc(/C=C/C(=O)c2ccccc2)cc1
5. COc1cc2c3c(n(C)c(=O)c2cc1OC)-c1cc2c(cc1C3=O)OCO2

1: 44.3% (inactive); 2: 67.5% (inactive); 3: 88.4% (inactive); 4: 40.6% (inactive); 5: 17.6% (inactive)

Quick one: give me growth for each item below, same order please.
1. COS(=O)(=O)c1ccc(Br)cc1
2. COC(=O)/C=C\C(=O)OC
3. O=C(O)CCC(=O)OC(C1CO1)C(OC(=O)CCC(=O)O)C1CO1 (stereo not drawn)
4. CC(=O)OCCO
5. COC(=O)C(O)c1ccccc1 (stereo not drawn)
6. Cc1cccc([N+](=O)[O-])c1Cl

1: 135% (inactive); 2: 103% (inactive); 3: 101% (inactive); 4: 107% (inactive); 5: 108% (inactive); 6: 117% (inactive)
